Reference for the values: patent US20230025129A1

# system_under_test: T1, mouse matriptase-2 ECD protein his tag (mouse, UniProt Q9DBI0 80-811)
# T1 sequence: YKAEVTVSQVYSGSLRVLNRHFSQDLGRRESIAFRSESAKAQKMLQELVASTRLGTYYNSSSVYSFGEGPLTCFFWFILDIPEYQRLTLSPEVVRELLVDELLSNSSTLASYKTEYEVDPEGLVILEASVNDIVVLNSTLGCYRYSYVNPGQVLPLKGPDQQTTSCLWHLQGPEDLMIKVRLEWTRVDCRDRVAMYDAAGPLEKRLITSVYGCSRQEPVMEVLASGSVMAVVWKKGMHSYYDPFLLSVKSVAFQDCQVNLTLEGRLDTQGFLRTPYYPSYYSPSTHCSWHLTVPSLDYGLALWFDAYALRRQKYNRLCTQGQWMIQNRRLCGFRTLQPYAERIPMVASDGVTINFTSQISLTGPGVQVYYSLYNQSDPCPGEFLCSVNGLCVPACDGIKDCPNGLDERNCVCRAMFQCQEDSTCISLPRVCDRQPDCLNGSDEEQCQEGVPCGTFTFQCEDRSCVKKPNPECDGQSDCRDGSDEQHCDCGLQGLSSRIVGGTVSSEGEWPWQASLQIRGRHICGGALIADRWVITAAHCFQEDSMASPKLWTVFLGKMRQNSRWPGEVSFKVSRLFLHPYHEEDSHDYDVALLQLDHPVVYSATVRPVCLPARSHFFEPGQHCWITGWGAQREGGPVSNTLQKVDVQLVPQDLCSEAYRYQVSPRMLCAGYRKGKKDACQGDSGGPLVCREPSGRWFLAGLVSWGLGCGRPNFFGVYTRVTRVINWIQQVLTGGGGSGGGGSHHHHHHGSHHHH
# experiment: cell-based or functional assay
measured_attribute: Inhibition enzymatic activity mouse MTP2 protein (IC50) (nM)

INSERT INTO measurements (binder, data_value) VALUES
  ('NORI-013 (antibody, human IgG4 S228P, lambda, V domains shown, human IgG4PE, lambda) VH: EVQLVESGGGLIQAGRSLRLSCAASGFTFDEHVIYWVRQIPGKGLEWISSISWKSDIIAYADSVKGRFTISRDNAKNALYLQMNSLRAEDTALYYCAREKDGDFYYYYFAMDVWGQGTTVTVSS VL: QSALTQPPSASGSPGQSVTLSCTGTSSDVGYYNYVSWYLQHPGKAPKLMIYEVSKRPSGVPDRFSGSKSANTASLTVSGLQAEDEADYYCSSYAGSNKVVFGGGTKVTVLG', 3.59),
  ('NORI-027 (antibody, human IgG4 S228P, lambda, V domains shown) VH: QVQLVQSGAELKKPGASVKVSCKASGYTFNNYGISWVRQAPGQGLEWMGWISAYSGYTNIAQKFQGRVTMTTDTSTNTVYMELGSLRSDDTAVYYCAREGYSNFEDWFDPWGQGTLVTVSS VL: SYELTQPPSVSVSPGQTARITCSGDELPKKYAYWYQQKSGQAPVLVIYEDSKRPSGIPERISGSNSGTMATLTISGAQVEDEADYYCYSTDSSGNHRVFGGGTKLTVLG', 40.8),
  ('NORI-008 (antibody, human IgG4 S228P, kappa, V domains shown, human IgG4PE, kappa, in the in vitro assays; a mouse IgG1 format was used in one in vivo study only; also called NORI-008 hulgG4PE; NORI-008 IgG) VH: QVQLQESGPGLVKPSETLSLTCSVSGGSVSSGRYYWTWIRQPPGKGLEWIGYISNSGNTNYNPSLKSRVTISLDTSKKQFSLSLSAVTAADTAVYYCARGFIYDYWFDPWGQGSLVTVSS VL: DSQMTQSPSSLSASVGDRVTITCQASQDIDNYLNWYQQRPGKAPKLLIYDASKLETGVPSRFSGSGSGTDFTFTISSLQPEDFATYYCQQYGNLPITFGQGTRLDIKR', 1.5),
  ('NORI-004 (antibody, human IgG4 S228P, kappa, V domains shown) VH: EVQLVESGGGLVKPGRSLRLSCTGSGFTFGDFGMSWFRQAPGKGLEWVCFIRSKPYGGTTDYAPSVKDRFTISRDDSKDIVYLQMNSLRTEDTAVYYCSRNEILTGYYIFDYWGQGTLVTVSS VL: DIQMTQSPSSLSASLGDRVTITCQASHDITNYLIWYQQKPGKAPRLLIFDASILETGVPSRFSGSGSGTDFTFTISSLQPEDFATYYCQQYYNLPLTFGGGTKVDIKR', 22.4),
  ('NORI-012 (antibody, human IgG4 S228P, lambda, V domains shown, human IgG4PE, lambda) VH: EVQLVESGGGLVQPGRSLRLSCAASGFTFDDHVMYWVRQAPGKGLEWVSGISWNSDTIGYADAVKGRFTISRDNAKNVLYLHMNSLRPEDTALYYCAREKDGDFYYNYFVMDVWGQGTTVTVSP VL: QSALTQPPSASGSPGQSVTISCTGTSSDVGFYNFVSWYQQHPDKAPKVMIYEVSKRPSGVPDRFSGSKSGNTASLTVSGLQAEDEADYYCSSYAGSNKVVFGGGTKLTVLG', 11.5);
